subjectOfTest: 5-hydroxytryptamine receptor 2B (Homo sapiens, UniProt P41595)
Sequence (P41595 whole entry): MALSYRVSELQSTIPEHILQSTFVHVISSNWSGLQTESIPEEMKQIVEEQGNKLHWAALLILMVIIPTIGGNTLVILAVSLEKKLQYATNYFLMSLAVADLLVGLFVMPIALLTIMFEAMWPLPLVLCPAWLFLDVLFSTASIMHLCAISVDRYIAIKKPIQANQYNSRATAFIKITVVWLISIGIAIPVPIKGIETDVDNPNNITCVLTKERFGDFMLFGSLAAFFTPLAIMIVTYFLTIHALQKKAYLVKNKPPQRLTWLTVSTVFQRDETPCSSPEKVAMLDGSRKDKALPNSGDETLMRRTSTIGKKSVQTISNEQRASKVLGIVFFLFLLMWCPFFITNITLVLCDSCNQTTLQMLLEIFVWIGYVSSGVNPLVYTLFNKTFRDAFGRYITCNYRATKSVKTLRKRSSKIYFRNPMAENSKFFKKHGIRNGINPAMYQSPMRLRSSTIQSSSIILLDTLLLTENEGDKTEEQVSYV
procedureSummary: GPCRScan assay: inhibition of 5-HT2B
Parameters: radioligand conc. used [nm] 1.0 – 2.0, parental cells stable HEK
statedConditions: read-out: Ki
pKi: −log10 of the molar value.
assayReadout: pKi

1) COCCc1ccc(-c2c(C)nc3c(N4CCOCC4)ccnn23)cn1 [JNJ-42396302] :: 5.64

###

subjectOfTest: UniProt:O76074
pKi: −log10 of the molar value.
assayReadout: pKi

1. COCCc1ccc(-c2c(C)nc3c(N4CCOCC4)ccnn23)cn1 :: 5.07

###

subjectOfTest: High affinity cAMP-specific and IBMX-insensitive 3',5'-cyclic phosphodiesterase 8A (Homo sapiens, UniProt O60658)
Sequence (O60658 whole entry): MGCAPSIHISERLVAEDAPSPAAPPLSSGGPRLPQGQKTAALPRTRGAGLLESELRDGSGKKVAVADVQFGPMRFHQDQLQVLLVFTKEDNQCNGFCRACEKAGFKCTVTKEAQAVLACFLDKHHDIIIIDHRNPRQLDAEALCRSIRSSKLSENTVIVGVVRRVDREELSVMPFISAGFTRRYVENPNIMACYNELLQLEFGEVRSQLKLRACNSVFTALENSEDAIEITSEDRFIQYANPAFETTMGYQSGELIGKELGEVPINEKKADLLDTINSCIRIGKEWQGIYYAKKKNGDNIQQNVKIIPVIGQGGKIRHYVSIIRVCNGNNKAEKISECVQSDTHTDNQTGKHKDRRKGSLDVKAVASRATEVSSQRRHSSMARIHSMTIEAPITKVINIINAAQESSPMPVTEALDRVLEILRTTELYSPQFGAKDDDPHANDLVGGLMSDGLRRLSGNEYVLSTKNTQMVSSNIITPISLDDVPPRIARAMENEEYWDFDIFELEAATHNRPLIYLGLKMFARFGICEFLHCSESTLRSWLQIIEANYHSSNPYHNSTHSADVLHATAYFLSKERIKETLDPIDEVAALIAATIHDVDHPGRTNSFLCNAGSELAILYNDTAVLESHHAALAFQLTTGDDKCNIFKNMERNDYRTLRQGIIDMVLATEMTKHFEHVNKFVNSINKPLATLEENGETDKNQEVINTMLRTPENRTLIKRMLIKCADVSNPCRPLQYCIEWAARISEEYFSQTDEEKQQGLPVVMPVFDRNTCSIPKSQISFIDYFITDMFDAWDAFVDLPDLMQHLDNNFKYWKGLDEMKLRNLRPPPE
assayReadout: Ki (µM)

1. COCCc1ccc(-c2c(C)nc3c(N4CCOCC4)ccnn23)cn1 :: 41
